Data origin: paper PMC7509492

Below: a set of entries, each annotated with reported Cytotoxicity HBEC-5i cells IC10.
test system: HBEC-5i cells; assay: CellTiter-Blue cell viability assay, HBEC-5i; type: cell-based, human; settings: Table 1, concentration causing 10% cell death, 24 h, peptide 0.01-100 μM, mean ± SD, triplicates of three independent experiments
Ends that are not written are not given here.

Sample records with Cytotoxicity HBEC-5i cells IC10:
substance	target-of-assay	Cytotoxicity HBEC-5i cells IC10
SGTQEEY-NH2 [PepNeg]	HBEC-5i cells	>200 µM
TF3-SGTQEEY-amide [TF3-PepNeg, PepNeg labeled at the N-terminus with tide fluor 3]	HBEC-5i cells	>200 µM
TF3-AGILKRW-amide [TF3-PepH3, PepH3 labeled at the N-terminus with tide fluor 3]	HBEC-5i cells	184.9 ± 6.57 µM

Please give measured Cytotoxicity HBEC-5i cells IC10 of the following entry: AGILKRW-NH2 [PepH3] >200 µM

---

assay: CellTiter-Blue cell viability assay, MDA-MB-231; type: cell-based, human; settings: human, MDA-MB-231 cells, Table 1, peptide 0.01-100 μM, mean ± SD, triplicates of three independent experiments, read-out: Cytotoxicity MDA-MB-231 cells IC50
Ends that are not written are not given here.
metric-name: IC50 at 24 h (µM)
// return numeric value only (unit: µM, not printed)

State its IC50 at 24 h for this substance: WRRRYRRWRRRRRWRRRPRR-NH2 [vCPP2319] 5.02

---

system: HBEC-5i cells; experiment: CellTiter-Blue cell viability assay, HBEC-5i; type: cell-based, human; settings: Table 1, concentration causing 10% cell death, 24 h, peptide 0.01-100 μM, mean ± SD, triplicates of three independent experiments
Peptide text beside a SMILES is read from it. * marks the point of attachment. RhodamineB = CCN(CC)c1ccc2c(-c3ccccc3C(=O)*)c3ccc(=[N+](CC)CC)cc-3oc2c1; 5FAM = O=C1OC2(c3ccc(O)cc3Oc3cc(O)ccc32)c2ccc(C(=O)*)cc21
Listed here are compounds together with their documented Cytotoxicity HBEC-5i cells IC10.

Sample answers from the record:
compound	Cytotoxicity HBEC-5i cells IC10
CC[C@H](C)[C@H](NC(=O)CNC(=O)[C@H](C)NC(=O)c1ccc2c(c1)C(=O)OC21c2ccc(O)cc2Oc2cc(O)ccc21)C(=O)N[C@@H](CC(C)C)C(=O)N[C@@H](CCCCN)C(=O)N[C@@H](CCCNC(=N)N)C(=O)N[C@@H](Cc1c[nH]c2ccccc12)C(N)=O [CF-PepH3] (5FAM-AGILKRW-NH2)	>200 µM
CCN(CC)c1ccc2c(-c3ccccc3C(=O)N[C@@H](CO)C(=O)NCC(=O)N[C@H](C(=O)N[C@@H](CCC(N)=O)C(=O)N[C@@H](CCC(=O)O)C(=O)N[C@@H](CCC(=O)O)C(=O)N[C@@H](Cc3ccc(O)cc3)C(N)=O)[C@@H](C)O)c3ccc(=[N+](CC)CC)cc-3oc2c1 [RhB-PepNeg] (RhodamineB-SGTQEEY-NH2)	>200 µM

The record that follows has no Cytotoxicity HBEC-5i cells IC10 shown yet.
Annotate the compound C[C@@H](O)[C@H](NC(=O)CNC(=O)[C@H](CO)NC(=O)c1ccc2c(c1)C(=O)OC21c2ccc(O)cc2Oc2cc(O)ccc21)C(=O)N[C@@H](CCC(N)=O)C(=O)N[C@@H](CCC(=O)O)C(=O)N[C@@H](CCC(=O)O)C(=O)N[C@@H](Cc1ccc(O)cc1)C(N)=O [CF-PepNeg] (5FAM-SGTQEEY-NH2) with its measured Cytotoxicity HBEC-5i cells IC10. >200 µM

---

Documented Translocation (%) across a set of compounds
test system: HBEC-5i cells (in vitro BBB model); test: In vitro BBB translocation across HBEC-5i transwell monolayer; type: in vitro ADME, human; conditions: labeled peptide, quantified by fluorescence emission; HBEC-5i monolayer on PET transwell 1.0 μm pores, apical to basolateral, 10 μM, 24 h, DMEM:F12 without phenol red; mean ± SD, triplicates of three independent experiments
Peptide text beside a SMILES is read from it. * marks the point of attachment. RhodamineB = CCN(CC)c1ccc2c(-c3ccccc3C(=O)*)c3ccc(=[N+](CC)CC)cc-3oc2c1; X1 = CC[N+]1=C(C=CC=C2N(CCCCCC(=O)*)c3ccccc3C2(C)C)C(C)(C)c2ccccc21; 5FAM = O=C1OC2(c3ccc(O)cc3Oc3cc(O)ccc32)c2ccc(C(=O)*)cc21
Note: unit % is implicit; provide only the numeric part.

Before answering, review these 2 worked examples.
compound	unit-of-measure	Translocation (%)
CC[C@H](C)[C@H](NC(=O)CNC(=O)[C@H](C)NC(=O)c1ccccc1-c1c2ccc(=[N+](CC)CC)cc-2oc2cc(N(CC)CC)ccc12)C(=O)N[C@@H](CC(C)C)C(=O)N[C@@H](CCCCN)C(=O)N[C@@H](CCCNC(=N)N)C(=O)N[C@@H](Cc1c[nH]c2ccccc12)C(N)=O [RhB-PepH3] (RhodamineB-AGILKRW-NH2)	%	51.57
C[C@@H](O)[C@H](NC(=O)CNC(=O)[C@H](CO)NC(=O)c1ccc2c(c1)C(=O)OC21c2ccc(O)cc2Oc2cc(O)ccc21)C(=O)N[C@@H](CCC(N)=O)C(=O)N[C@@H](CCC(=O)O)C(=O)N[C@@H](CCC(=O)O)C(=O)N[C@@H](Cc1ccc(O)cc1)C(N)=O [CF-PepNeg] (5FAM-SGTQEEY-NH2)	%	56.01

Please turn your attention to the following entry.
Note down Translocation (%) recorded for CC[N+]1=C(C=CC=C2N(CCCCCC(=O)N[C@@H](CO)C(=O)NCC(=O)N[C@H](C(=O)N[C@@H](CCC(N)=O)C(=O)N[C@@H](CCC(=O)O)C(=O)N[C@@H](CCC(=O)O)C(=O)N[C@@H](Cc3ccc(O)cc3)C(N)=O)[C@@H](C)O)c3ccccc3C2(C)C)C(C)(C)c2ccccc21 [Q570-PepNeg] (X1-SGTQEEY-NH2) 48.89

---

system: MDA-MB-231 cells; assay: CellTiter-Blue cell viability assay, MDA-MB-231; format: cell-based, human; conditions: Table 1, concentration causing 10% cell death, 24 h, peptide 0.01-100 μM, mean ± SD, triplicates of three independent experiments
Ends that are not written are not given here.
Cytotoxicity MDA-MB-231 cells IC10 values, listed per item
Please state the figure in µM; there is no need to write the unit.

Use these answered entries as a reference point.
substance	Cytotoxicity MDA-MB-231 cells IC10 (µM)
TF3-WRRRYRRWRRRRRWRRRPRR-amide [TF3-vCPP2319, vCPP2319 labeled at the N-terminus with tide fluor 3]	1.05
TF3-KKRLKKIFKKPMVIGVTIPF-amide [TF3-Ctn[15-34], Ctn[15-34] labeled at the N-terminus with tide fluor 3]	2.57
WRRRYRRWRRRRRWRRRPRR-NH2 [vCPP2319]	1.22

Please look at the following substance next.
Output Cytotoxicity MDA-MB-231 cells IC10 of KKRLKKIFKKPMVIGVTIPF-NH2 [Ctn[15-34]] 4.76

---

Recorded Cytotoxicity HBEC-5i cells IC10 by entry
test system: HBEC-5i cells; assay: CellTiter-Blue cell viability assay, HBEC-5i; type: cell-based, human; conditions: Table 1, concentration causing 10% cell death, 24 h, peptide 0.01-100 μM, mean ± SD, triplicates of three independent experiments
Peptide text beside a SMILES is read from it. * marks the point of attachment. RhodamineB = CCN(CC)c1ccc2c(-c3ccccc3C(=O)*)c3ccc(=[N+](CC)CC)cc-3oc2c1; X1 = CC[N+]1=C(C=CC=C2N(CCCCCC(=O)*)c3ccccc3C2(C)C)C(C)(C)c2ccccc21

The following compounds have reported results that may help.
compound	target-of-assay	observed-value
CC[C@H](C)[C@H](NC(=O)CNC(=O)[C@H](C)NC(=O)c1ccccc1-c1c2ccc(=[N+](CC)CC)cc-2oc2cc(N(CC)CC)ccc12)C(=O)N[C@@H](CC(C)C)C(=O)N[C@@H](CCCCN)C(=O)N[C@@H](CCCNC(=N)N)C(=O)N[C@@H](Cc1c[nH]c2ccccc12)C(N)=O [RhB-PepH3] (RhodamineB-AGILKRW-NH2)	HBEC-5i cells	>200 µM
CC[C@H](C)[C@H](NC(=O)CNC(=O)[C@H](C)NC(=O)CCCCCN1C(=CC=CC2=[N+](CC)c3ccccc3C2(C)C)C(C)(C)c2ccccc21)C(=O)N[C@@H](CC(C)C)C(=O)N[C@@H](CCCCN)C(=O)N[C@@H](CCCNC(=N)N)C(=O)N[C@@H](Cc1c[nH]c2ccccc12)C(N)=O [Q570-PepH3] (X1-AGILKRW-NH2)	HBEC-5i cells	>200 µM

Please list Cytotoxicity HBEC-5i cells IC10 recorded for the compound CC[N+]1=C(C=CC=C2N(CCCCCC(=O)N[C@@H](CO)C(=O)NCC(=O)N[C@H](C(=O)N[C@@H](CCC(N)=O)C(=O)N[C@@H](CCC(=O)O)C(=O)N[C@@H](CCC(=O)O)C(=O)N[C@@H](Cc3ccc(O)cc3)C(N)=O)[C@@H](C)O)c3ccccc3C2(C)C)C(C)(C)c2ccccc21 [Q570-PepNeg] (X1-SGTQEEY-NH2) >200 µM
